Biological target: RNA-directed RNA polymerase (Hepacivirus hominis, UniProt O39930)
Sequence (O39930 whole entry): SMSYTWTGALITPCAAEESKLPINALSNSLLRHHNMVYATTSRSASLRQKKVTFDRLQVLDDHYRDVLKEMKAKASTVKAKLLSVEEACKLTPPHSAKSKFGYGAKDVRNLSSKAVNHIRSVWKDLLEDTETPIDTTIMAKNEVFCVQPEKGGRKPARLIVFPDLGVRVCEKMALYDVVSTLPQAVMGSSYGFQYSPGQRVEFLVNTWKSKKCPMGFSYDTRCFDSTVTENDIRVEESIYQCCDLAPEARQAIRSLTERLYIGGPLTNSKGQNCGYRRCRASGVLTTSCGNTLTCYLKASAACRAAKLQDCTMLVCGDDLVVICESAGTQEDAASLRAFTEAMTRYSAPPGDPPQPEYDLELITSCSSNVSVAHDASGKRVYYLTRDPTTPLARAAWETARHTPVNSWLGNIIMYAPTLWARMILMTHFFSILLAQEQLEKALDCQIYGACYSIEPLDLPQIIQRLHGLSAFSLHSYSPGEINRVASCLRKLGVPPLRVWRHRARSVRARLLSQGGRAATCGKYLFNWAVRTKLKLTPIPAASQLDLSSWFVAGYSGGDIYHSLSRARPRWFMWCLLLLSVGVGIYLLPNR
Experiment: Inhibitory activity against HCV 1b BK NS5B RNA polymerase
Design: species or system Hepatitis C virus subtype 1b
pIC50: −log10 of the molar value.

chemical_smiles | system_name | pIC50
O=C(NCc1ccccc1Cl)Nc1ccsc1-c1nc(O)c(O)c(C(=O)O)n1 | RNA-directed RNA polymerase (Hepacivirus hominis, UniProt O39930) | 6.89

====

Measured logD, listed per entry for reference.
Assay: Lipophilicity as measured by LogD at pH 7.4
Assay type: physicochemical
Settings: buffer

chemical_smiles | logD
O=C(Nc1ccsc1-c1nc(C(=O)O)c(O)c(=O)[nH]1)OCCc1ccccc1 | -0.43
O=C(NCc1ccccc1Cl)Nc1ccsc1-c1nc(O)c(O)c(C(=O)O)n1 | 0.37
O=C(O)c1nc(-c2nccs2)nc(O)c1O | -2.12
Cc1cccc(Cl)c1CNC(=O)Nc1ccsc1-c1nc(O)c(O)c(C(=O)O)n1 | 0.6
O=C(O)c1nc(-c2cccs2)nc(O)c1O | -1.95

====

Measured IC50, listed per entry for reference.
Biological target: RNA-directed RNA polymerase (Hepacivirus hominis, UniProt O39930, DELTAC55/R158M)
Assay: Inhibitory activity against HCV 1b BK NS5B deltaC55-R158M mutant RNA polymerase

chemical_smiles | unit_string | IC50
O=C(O)c1nc(-c2cccs2)nc(O)c1O | µM | 9.3
O=C(Nc1ccsc1-c1nc(O)c(O)c(C(=O)O)n1)OCc1ccccc1Cl | µM | 0.34
O=C(O)c1nc(-c2nccs2)nc(O)c1O | µM | 2.77

====

Target: RNA-directed RNA polymerase (Hepacivirus hominis)
Test: Inhibitory activity against HCV 1b BK NS5B deltaC55 RNA polymerase involving manganese chelation
Design: species or system Hepatitis C virus subtype 1b
Decision: IC50 beneath 200 nM gives YES; IC50 meeting or exceeding 200 nM gives NO.

chemical_smiles | class_name
O=C(O)c1nc(-c2nccs2)nc(O)c1O | NO
O=C(O)c1nc(-c2sccc2[N+](=O)[O-])nc(O)c1O | YES
O=C(O)c1nc(-c2cccs2)nc(O)c1O | NO
O=C(O)c1nc(-c2ccco2)nc(O)c1O | NO
O=C(O)c1nc(C2CCCCC2)nc(O)c1O | NO
Cn1c(-c2cccs2)nc(C(=O)O)c(O)c1=O | NO
O=C(NCc1ccccc1Cl)Nc1ccsc1-c1nc(O)c(O)c(C(=O)O)n1 | YES

====

Measured pKa, listed per entry for reference.
Assay: Dissociation constant, pKa of the compound
Assay type: physicochemical

chemical_smiles | pKa
Cn1c(-c2cccs2)nc(C(=O)O)c(O)c1=O | 9.1
O=C(O)c1nc(-c2ccccc2)nc(O)c1O | 8.6
O=C(O)c1nc(-c2sccc2[N+](=O)[O-])nc(O)c1O | 6.9
O=C(O)c1nc(C2CCCCC2)nc(O)c1O | 8.7
O=C(NCc1ccccc1Cl)Nc1ccsc1-c1nc(O)c(O)c(C(=O)O)n1 | 6.6
O=C(O)c1nc(-c2nccs2)nc(O)c1O | 6.9
O=C(O)c1nc(-c2cccs2)nc(O)c1O | 7.7
O=C(O)c1nc(-c2ccco2)nc(O)c1O | 7.4

====

Target: RNA-directed RNA polymerase (Hepacivirus hominis)
Test: Inhibitory activity against HCV 1b BK NS5B deltaC21 RNA polymerase
Set-up: species or system Hepatitis C virus subtype 1b
experimental_endpoint: IC50 (µM)

chemical_smiles | unit_string | measured_number
O=C(NCc1ccccc1Cl)Nc1ccsc1-c1nc(O)c(O)c(C(=O)O)n1 | µM | 0.045

====

Measured IC50, listed per entry for reference.
Biological target: RNA-directed RNA polymerase (Hepacivirus hominis)
Assay: Inhibitory activity against HCV 1b BK NS5B deltaC55 RNA polymerase involving magnesium chelation
Set-up: species or system Hepatitis C virus subtype 1b
experimental_endpoint: IC50

chemical_smiles | result
O=C(O)c1nc(-c2ccco2)nc(O)c1O | 2.9 µM
O=C(NCc1ccccc1Cl)Nc1ccsc1-c1nc(O)c(O)c(C(=O)O)n1 | 0.15 µM
O=C(O)c1nc(-c2nccs2)nc(O)c1O | 0.76 µM
O=C(O)c1nc(C2CCCCC2)nc(O)c1O | > 50 µM
O=C(O)c1nc(-c2sccc2[N+](=O)[O-])nc(O)c1O | 0.68 µM

====

Measured pIC50, listed per entry for reference.
Biological target: RNA-directed RNA polymerase (Hepacivirus hominis)
Assay: Inhibitory activity against HCV 1b BK NS5B deltaC55 RNA polymerase
Parameters: species or system Hepatitis C virus subtype 1b
pIC50: −log10 of the molar value.

chemical_smiles | qualifier_sign | pIC50
O=C(O)c1nc(Cc2ccccc2)nc(O)c1O | < | 4.30
O=C(O)c1nc(-c2sccc2[N+](=O)[O-])nc(O)c1O | = | 6.17
O=C(O)c1nc(-c2nccs2)nc(O)c1O | = | 6.12
O=C(Nc1ccsc1-c1nc(O)c(O)c(C(=O)O)n1)OCc1ccccc1Cl | = | 6.85
O=C(O)c1nc(-c2ccco2)nc(O)c1O | = | 5.54
O=C(Nc1ccccc1)Nc1ccsc1-c1nc(O)c(O)c(C(=O)O)n1 | = | 6.24
CCCCc1nc(C(=O)O)c(O)c(=O)[nH]1 | < | 4.30
O=C(O)c1nc(-c2sccc2NS(=O)(=O)c2ccc3ccccc3c2)[nH]c(=O)c1O | = | 5.85
O=C(NCc1ccccc1Cl)Nc1ccsc1-c1nc(O)c(O)c(C(=O)O)n1 | = | 6.82
Nc1ccsc1-c1nc(C(=O)O)c(O)c(=O)[nH]1 | = | 5.72
Cn1c(-c2cccs2)nc(C(=O)O)c(O)c1=O | = | 5.38
Cc1cccc(Cl)c1CNC(=O)Nc1ccsc1-c1nc(O)c(O)c(C(=O)O)n1 | = | 7.05

====

Measured IC50, listed per entry for reference.
Molecular target: RNA-directed RNA polymerase (Hepacivirus hominis, UniProt O39930)
Assay: Inhibitory activity against HCV 1b BK NS5B deltaC55 RNA polymerase
Design: species or system Hepatitis C virus subtype 1b
experimental_endpoint: IC50 (nM)

chemical_smiles | measured_number
O=C(Nc1ccsc1-c1nc(C(=O)O)c(O)c(=O)[nH]1)c1ccccc1 | 800
O=C(Nc1ccsc1-c1nc(C(=O)O)c(O)c(=O)[nH]1)OCc1cccc2ccccc12 | 140
Cc1ccc(-c2nc(O)c(O)c(C(=O)O)n2)s1 | 48600
O=C(Cc1ccccc1Cl)Nc1ccsc1-c1nc(O)c(O)c(C(=O)O)n1 | 210
O=C(Nc1ccsc1-c1nc(O)c(O)c(C(=O)O)n1)OCc1c(Cl)cccc1Cl | 190
O=C(Nc1csc(-c2nc(C(=O)O)c(O)c(=O)[nH]2)c1)c1cccs1 | 13800
O=C(NCc1ccccc1)Nc1ccsc1-c1nc(O)c(O)c(C(=O)O)n1 | 230
Cn1c(-c2sccc2[N+](=O)[O-])nc(C(=O)O)c(O)c1=O | 8700
O=C(Cc1c[nH]c2ccccc12)Nc1ccsc1-c1nc(O)c(O)c(C(=O)O)n1 | 200
O=C(O)c1nc(-c2ccc([N+](=O)[O-])s2)[nH]c(=O)c1O | 16000
O=C(O)c1nc(-c2sccc2[N+](=O)[O-])n(Cc2ccccc2)c(=O)c1O | 79300
O=C(O)c1nc(-c2cnccn2)nc(O)c1O | 5300
O=C(Cc1c(-c2ccccc2)[nH]c2ccccc12)Nc1ccsc1-c1nc(C(=O)O)c(O)c(=O)[nH]1 | 280
O=C(CCc1ccccc1)Nc1ccsc1-c1nc(O)c(O)c(C(=O)O)n1 | 580
C=CCn1c(-c2sccc2[N+](=O)[O-])nc(C(=O)O)c(O)c1=O | 69300
O=C(Nc1ccsc1-c1nc(O)c(O)c(C(=O)O)n1)OCc1ccccc1 | 290
O=C(NCCc1ccccc1)Nc1ccsc1-c1nc(O)c(O)c(C(=O)O)n1 | 620
O=C(NCc1csc2ccccc12)Nc1ccsc1-c1nc(O)c(O)c(C(=O)O)n1 | 220
O=C(Nc1ccsc1-c1nc(C(=O)O)c(O)c(=O)[nH]1)OCCc1ccccc1 | 460
Cc1ccsc1-c1nc(O)c(O)c(C(=O)O)n1 | 5600
O=C(O)c1nc(-c2cc3ccccc3s2)nc(O)c1O | 11600

====

Molecular target: RNA-directed RNA polymerase (Hepacivirus hominis, UniProt O39930, DELTAC55/R158K)
Experiment: Inhibitory activity against HCV 1b BK NS5B deltaC55-R158K mutant RNA polymerase
pIC50: −log10 of the molar value.

chemical_smiles | pIC50
O=C(O)c1nc(-c2cccs2)nc(O)c1O | 4.04
O=C(O)c1nc(-c2nccs2)nc(O)c1O | 4.80
O=C(Nc1ccsc1-c1nc(O)c(O)c(C(=O)O)n1)OCc1ccccc1Cl | 6.05

====

Measured IC50, listed per entry for reference.
Molecular target: RNA-directed RNA polymerase (Hepacivirus hominis, UniProt O39930)
Test: Inhibitory activity against HCV 1b BK NS5B deltaC55 RNA polymerase
Design: species or system Hepatitis C virus subtype 1b
experimental_endpoint: IC50 (µM)

chemical_smiles | qualifier_sign | measured_number
O=C(Cc1csc2ccccc12)Nc1ccsc1-c1nc(C(=O)O)c(O)c(=O)[nH]1 | = | 0.23
O=C(O)c1nc(C2CCCCC2)nc(O)c1O | > | 50
O=C(Cc1ccccc1)Nc1ccsc1-c1nc(O)c(O)c(C(=O)O)n1 | = | 0.38
O=C(O)c1nc(-c2cc([N+](=O)[O-])cs2)nc(O)c1O | = | 9.4
CS(=O)(=O)c1nc(C(=O)O)c(O)c(=O)[nH]1 | = | 2.4

These measurements were taken from ChEMBL document CHEMBL1138187.
